Molecular target: H3 receptor (Cavia porcellus, UniProt Q9JI35)
Construct: The source of the H3 receptors in this experiment was guinea pig brain; from tissue; host or cells: guinea pig brain membranes
Sequence (Q9JI35 whole entry): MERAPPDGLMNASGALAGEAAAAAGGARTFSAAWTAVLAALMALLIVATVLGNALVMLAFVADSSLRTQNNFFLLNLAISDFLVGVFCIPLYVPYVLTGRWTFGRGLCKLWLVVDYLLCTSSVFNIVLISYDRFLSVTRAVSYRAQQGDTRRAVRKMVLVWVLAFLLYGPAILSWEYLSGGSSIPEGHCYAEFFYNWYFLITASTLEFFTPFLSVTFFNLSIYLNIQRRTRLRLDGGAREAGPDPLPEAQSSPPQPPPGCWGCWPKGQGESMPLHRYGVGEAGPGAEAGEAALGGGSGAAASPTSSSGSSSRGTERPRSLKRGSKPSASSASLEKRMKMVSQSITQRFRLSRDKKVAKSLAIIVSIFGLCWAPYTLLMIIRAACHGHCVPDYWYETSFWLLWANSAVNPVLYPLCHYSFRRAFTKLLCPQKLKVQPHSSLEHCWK
Test: H3 Receptor Binding Assay
Parameters: species or system guinea pig
Settings: guinea pig brain membranes; 3 nM [^3 H]R-α-methylhistamine or 3 nM [^3 H]N^α -methylhistamine; 30° C., 30 min, pH 7.5; read-out: Ki
Readout: Ki
Express the reported value numerically, then name its unit.

Value lookup for Ki; key = N=C(NCc1ccc(C(F)(F)F)cc1)c1ccc(Cc2c[nH]cn2)cc1 [Compound 6b]
140 nM
